Tested on: Burkholderia pseudomallei
testMethodNotes: Antimicrobial activity against Burkholderia pseudomallei 1026b after 24 hrs by broth microdilution method
Assay type: functional
measurementKind: log10 MIC (log10 of the value in µg/mL)
In plain terms, each number is the log10 of measured MIC in µg/mL.

Examples with their reported log10 MIC follow.
O=C(N[C@H](CO)[C@H](O)c1ccc([N+](=O)[O-])cc1)C(Cl)Cl = 0.90
NC[C@H]1O[C@H](O[C@H]2[C@H](O)[C@@H](O[C@H]3O[C@H](CO)[C@@H](O)[C@H](N)[C@H]3O)[C@H](N)C[C@@H]2N)[C@H](O)[C@@H](O)[C@@H]1O = 1.81
CC1COc2c(N3CCN(C)CC3)c(F)cc3c(=O)c(C(=O)O)cn1c23 (configuration not stated) = 0.30
CC[C@H]1OC(=O)[C@H](C)[C@@H](O[C@H]2C[C@@](C)(OC)[C@@H](O)[C@H](C)O2)[C@H](C)[C@@H](O[C@@H]2O[C@H](C)C[C@H](N(C)C)[C@H]2O)[C@](C)(OC)C[C@@H](C)C(=O)[C@H](C)[C@@H](O)[C@]1(C)O = 2.11

Recorded log10 MIC (compound CN[C@@H]1[C@H](O)[C@H](NC)[C@H]2O[C@@]3(O)C(=O)C[C@@H](C)O[C@H]3O[C@@H]2[C@H]1O ): 3.31

Ref: ChEMBL document CHEMBL1275254
